- System: Toxoplasma gondii
- Procedure summary: MMV: A total of 100ul of inoculum was added to each well (parasite/cell ratio, ~10:1; final volume, 200 ul). Six hours after inoculation, nonadherent parasites were removed, and 100 ul of complete DMEM (1% penicillin-streptomycin, 3% FBS) supplemented with inhibitors at different concentrations (2-fold serial dilutions starting from 30 uM) was added to all except the negative-control wells. Positive controls, consisting of pyrimethamine (PYR) and sulfadiazine (SDZ) (20-mg/ml stocks in DMSO), were tested at a 2mg/ml final concentration. Each test was performed in triplicate.
- Assay type: functional, organism-based
- Condition context: 6 h
This section presents molecules with their documented IC50 values.

Worked examples, 3 molecules total:
CCN(Cc1ccccc1)C1CCN(Cc2cc(Br)ccc2O)CC1 ... > 30 µM
CCOC(=O)C1=C(C)N=c2sc(=Cc3ccccc3O)c(=O)n2C1c1ccc(OC)c2ccccc12 (centres undefined) ... > 30 µM
CC(C)OCc1cc(CN2CCN(c3cccc(Cl)c3)CC2)c(O)c2ncccc12 ... > 30 µM

Exercise: Would you mind telling me what IC50 value was observed for `CCn1c(CN2CCN(Cc3ccccc3)CC2)nc2cc(NC(=O)c3cccs3)ccc21` ?
Solution: > 30 µM

Exercise: Quick one: IC50 for `CC(=O)c1ccc(NC(=O)CSc2nc(-c3ccccc3Cl)ns2)cc1` ?
Solution: 14.9 µM

Exercise: // IC50 lookup, key: `CN(C)c1ccc(N2C(N)=NC(N)=NC2(C)C)cc1`
Solution: 28.9 µM

Exercise: What does the record list as IC50 for `Nc1nc(Nc2cccc(F)c2)nc2ccccc12` ?
Solution: 29 µM

Exercise: I have this molecule here, `COc1ccc(Nc2nc(N/N=C/c3ccc(O)cc3)nc(Nc3ccc([N+](=O)[O-])cc3)n2)cc1` , and I need its recorded IC50.
Solution: > 30 µM

Exercise: # IC50 lookup, item CCOc1cc(CNC(C)C(O)c2ccccc2)cc(Cl)c1OCC (centres undefined)
Solution: > 30 µM

Exercise: Could you share which IC50 value was measured for OC(Cn1nnc2ccccc21)Cn1c2ccc(Br)cc2c2cc(Br)ccc21 (centres undefined) ?
Solution: > 30 µM

Exercise: IC50 lookup needed for O=C(Cc1ccccc1)NC(c1ccc(Cl)cc1)c1c(O)ccc2ccccc12 (centres undefined) , thanks.
Solution: > 30 µM

Exercise: Could you tell me which IC50 is on file for `COc1cc(-c2nc(-c3ccc(Sc4ccccc4)cc3)c(-c3ccccc3)[nH]2)cc(OC)c1O` ?
Solution: 5.85 µM

Exercise: Record request: IC50 value, item `Cc1cc(Nc2ccc3ccccc3c2)n2ncnc2n1`
Solution: > 30 µM

Exercise: I would be grateful if you could share the reported IC50 for `CCCCN(CCCC)S(=O)(=O)c1ccc(NC(=O)c2ccco2)cc1` .
Solution: 1.07 µM

Exercise: What value of IC50 has been reported for the following molecule? `CCCOCc1cc(CN2CCN(c3cccc(Cl)c3)CC2)c(O)c2ncccc12`
Solution: > 30 µM

Exercise: Which value of IC50 has been reported for O=C(Nc1cccc(C2=NCCN2)c1)Nc1cccc(C2=NCCN2)c1 [IMIDOCARB] in the records?
Solution: > 30 µM

Exercise: // lookup IC50 for `Cc1cc(NC(=O)c2ccc(-c3ccccc3)cc2)no1`
Solution: 21.1 µM

Exercise: Entry under review: CCCCCCc1cc(O)c2c3c(c(=O)oc2c1)CCC(C)C3 (centres undefined) . Reported IC50?
Solution: > 30 µM

Exercise: Look at this molecule and give its reported IC50. `Cc1cc(N2CCN(C3CCCC3)CC2)n2c(nc3ccccc32)c1C#N`
Solution: > 30 µM
